- assay: Extrapolated absorption data for dual-film dosage
- Type: in vivo
- condition-notes: human, plasma, other: sublingual or buccal film, dual-layered film, local pH 3.5 and 5.5, read-out: Naloxone Cmax
assay-endpoint: Cmax

> print(dat)
                                   molecule                result
1  C=CCN1CC[C@]23c4c5ccc(O)c4O[C@H]2C(=O)CC[C@@]3(O)[C@H]1C5 [naloxone]  0.0325 to 0.26 ng/mL

----------
- assay: Extrapolated absorption data for dual-film dosage
- Assay type: in vivo
- condition-notes: human, plasma, other: sublingual or buccal film, dual-layered film, local pH 3.5 and 5.5, read-out: Naloxone AUC
assay-endpoint: AUC

> print(dat)
                                   molecule                   result
1  C=CCN1CC[C@]23c4c5ccc(O)c4O[C@H]2C(=O)CC[C@@]3(O)[C@H]1C5  0.0905 to 0.724 ng·h/mL

----------
- assay: Extrapolated absorption data for dual-film dosage
- Format: in vivo
- condition-notes: human, plasma, other: sublingual/buccal film dissolved in the oral cavity, dual-layered film, local pH 3.5 and 5.5, read-out: Naloxone AUC
assay-endpoint: AUC

> print(dat)
                                   molecule  assay.endpoint                   result
1  C=CCN1CC[C@]23c4c5ccc(O)c4O[C@H]2C(=O)CC[C@@]3(O)[C@H]1C5             AUC  0.0906 to 0.724 ng·h/mL
